Experimental system: human recombinant sGC enzyme (Homo sapiens (Human), UniProt Q02108+Q02153)
Test protocol: Size Exclusion Chromatography (SEC) competition binding assay using [3H] Ex-77B as the radioligand
Details: [3H] Ex-77B radioligand, 24 hours at 37° C.

Compound | Endpoint unit | Ki
CC(C)(CCc1coc(C2(C)C(=O)Nc3nc(-c4nn(Cc5ccccc5F)c5cc(Cl)ccc45)nc(N)c32)n1)C(=O)O (stereo not drawn) [Example 167B] | nM | 0.07
CC(C)(Cc1coc(C2(C)C(=O)Nc3nc(-c4nn(Cc5ncccc5F)c5cc(Cl)ccc45)nc(N)c32)n1)C(=O)O (stereo not drawn) [Example 184A] | nM | 0.092
CC(C)(Cc1csc([C@]2(C)C(=O)Nc3nc(-c4nn(Cc5cccc(F)c5)c5ccccc45)nc(N)c32)n1)C(=O)O [Example 222A] | nM | 0.112

----------
Experimental system: sGC α1/β1 heterodimer (Homo sapiens (Human), UniProt Q02108+Q02153)
Test protocol: Cell-based sGC functional assay (cyclic GMP assay for sGC activator: CASA assay)
Details: CHO-K1, activity expressed as percentage of compound A (standard); CHO-K1/sGC cells; read-out: % Activation
Quantity: Emax (%)

Compound | Reported measurement
CCCCCCn1nc(-c2nc(N)c3c(n2)NC(=O)[C@@]3(C)c2ccc(CCC(=O)O)cc2)c2ccc(Cl)cc21 [Example 45B] | 95
Nc1nc(-c2nn(CCC(F)(F)C(F)(F)F)c3cc(Cl)ccc23)nc2c1C(c1ccc(CCC(=O)O)cc1)(C1CC1)C(=O)N2 (centres unmarked) [Example 158A] | 88.8
CC1(c2cccc(C(=O)O)n2)C(=O)Nc2nc(-c3nn(Cc4ccccc4F)c4cc(Cl)ccc34)nc(N)c21 (centres unmarked) [Example 255A] | 108
Cc1ccccc1Cn1nc(-c2nc(N)c3c(n2)NC(=O)[C@@]3(C)c2ccc(CCC(=O)O)cc2)c2ccc(Cl)cc21 [Example 68B] | 109
CC(C)(Cc1coc(C2(C)C(=O)Nc3nc(-c4nn(CC5CCCCC5)c5ncccc45)nc(N)c32)n1)C(=O)O (centres unmarked) [Example 152A] | 118
CC(C)(Cc1coc(C2(C3CC3)C(=O)Nc3nc(-c4nn(Cc5ccccc5F)c5cc(Cl)ccc45)nc(N)c32)n1)C(=O)O (centres unmarked) [Example 138B] | 114
CC1(c2nc(-c3ccc(C(=O)O)cc3)cs2)C(=O)Nc2nc(-c3nn(Cc4ccccc4F)c4ncccc34)nc(N)c21 (centres unmarked) [Example 147A] | 73.4
CCCCn1nc(-c2nc(N)c3c(n2)NC(=O)C3(C)c2cn(CCC(=O)O)nn2)c2ccc(Cl)cc21 (centres unmarked) [Example 36B] | 105
CC(C)(CCc1csc(C2(C)C(=O)Nc3nc(-c4nn(Cc5cccc(F)c5)c5cc(F)ccc45)nc(N)c32)n1)C(=O)O (centres unmarked) [Example 196A] | 90.3
CC(C)(CCc1coc(C2(C)C(=O)Nc3nc(-c4nn(Cc5ccccc5F)c5ncccc45)nc(N)c32)n1)C(=O)O (centres unmarked) [Example 206B] | 113
CC(C)(Cn1cc(C2(C)C(=O)Nc3nc(-c4nn(CCC(F)(F)C(F)(F)F)c5cc(Cl)ccc45)nc(N)c32)nn1)C(=O)O (centres unmarked) [Example 31B] | 130
CC(C)(Cc1coc(C2(C)C(=O)Nc3nc(-c4nn(CC5CCCCO5)c5ncccc45)nc(N)c32)n1)C(=O)O (single isomer, unassigned) [Example 124AA] | 76.5
CC(C)(Cn1cc(C2(C)C(=O)Nc3nc(-c4nn(Cc5ccccc5F)c5ncccc45)nc(N)c32)cn1)C(=O)O (centres unmarked) [Example 145A] | 82.9
Cc1cccc(Cn2nc(-c3nc(N)c4c(n3)NC(=O)[C@@]4(C)c3ccc(CCC(=O)O)cc3)c3ccc(Cl)cc32)c1 [Example 66B] | 107
C[C@@]1(c2ccc(CCC(=O)O)cc2)C(=O)Nc2nc(-c3nn(CCCC(F)(F)F)c4ncc(F)cc34)nc(N)c21 [Example 18B] | 95
Cc1ccc2c(-c3nc(N)c4c(n3)NC(=O)[C@@]4(C)c3ccc(CCC(=O)O)cc3)nn(Cc3ccccc3F)c2c1 [Example 59B] | 116
CC(C)(Cc1coc(C2(C)C(=O)Nc3nc(-c4nn(Cc5ncccc5F)c5cc(Cl)ccc45)nc(N)c32)n1)C(=O)O (centres unmarked) [Example 184A] | 97.7

----------
In this section, each of the compounds is paired with its reported pKi.
Experimental system: human recombinant sGC enzyme (Homo sapiens (Human), UniProt Q02108+Q02153)
Test protocol: Size Exclusion Chromatography (SEC) competition binding assay using [3H] Ex-77B as the radioligand
Details: [3H] Ex-77B radioligand, 24 hours at 37° C.
pKi: −log10 of the molar value.
Quantity: pKi

Compound | Experimental system | Reported measurement
Cc1oc(C2(C)C(=O)Nc3nc(-c4nn(Cc5ccccc5F)c5cc(Cl)ccc45)nc(N)c32)nc1CC(C)(C)C(=O)O (stereo not drawn) [Example 170B] | human recombinant sGC enzyme (Homo sapiens (Human), UniProt Q02108+Q02153) | 9.93
CC(C)(Cc1csc([C@]2(C)C(=O)Nc3nc(-c4nn(Cc5cccc(F)c5F)c5cc(Cl)ccc45)nc(N)c32)n1)C(=O)O [Example 181A] | human recombinant sGC enzyme (Homo sapiens (Human), UniProt Q02108+Q02153) | 10.03
CC1(c2ccnc(C(=O)O)c2)C(=O)Nc2nc(-c3nn(Cc4ccccc4F)c4cc(Cl)ccc34)nc(N)c21 (stereo not drawn) [Example 143B] | human recombinant sGC enzyme (Homo sapiens (Human), UniProt Q02108+Q02153) | 9.76
CC1(c2nc(-c3ccc(C(=O)O)cc3)co2)C(=O)Nc2nc(-c3nn(Cc4ccccc4F)c4ncccc34)nc(N)c21 (stereo not drawn) [Example 146A] | human recombinant sGC enzyme (Homo sapiens (Human), UniProt Q02108+Q02153) | 10.21
CC1(c2cccc(CCC(=O)O)c2)C(=O)Nc2nc(-c3nn(Cc4ccccc4F)c4cc(F)ccc34)nc(N)c21 (stereo not drawn) [Example 61A] | human recombinant sGC enzyme (Homo sapiens (Human), UniProt Q02108+Q02153) | 10.18
CC1(c2nc(-c3ccc(C(=O)O)cc3)co2)C(=O)Nc2nc(-c3nn(Cc4ccccc4F)c4cc(Cl)ccc34)nc(N)c21 (stereo not drawn) [Example 164A] | human recombinant sGC enzyme (Homo sapiens (Human), UniProt Q02108+Q02153) | 10.00
CC1CCC(Cn2nc(-c3nc(N)c4c(n3)NC(=O)C4(C)c3nc(CC(C)(C)C(=O)O)co3)c3ccc(Cl)cc32)CC1 (single isomer, unassigned) [Example 132AB] | human recombinant sGC enzyme (Homo sapiens (Human), UniProt Q02108+Q02153) | 10.13
CC(C)(Cc1csc([C@]2(C)C(=O)Nc3nc(-c4nn(Cc5ccccc5F)c5ncc(F)cc45)nc(N)c32)n1)C(=O)O [Example 91B] | human recombinant sGC enzyme (Homo sapiens (Human), UniProt Q02108+Q02153) | 9.74
C[C@@]1(c2ccc(CCc3nn[nH]n3)cc2)C(=O)Nc2nc(-c3nn(Cc4ccccc4F)c4ncccc34)nc(N)c21 [Example 240B] | human recombinant sGC enzyme (Homo sapiens (Human), UniProt Q02108+Q02153) | 10.12
CC(C)(Cc1nc(C2(C)C(=O)Nc3nc(-c4nn(Cc5ccccc5F)c5cc(Cl)ccc45)nc(N)c32)co1)C(=O)O (stereo not drawn) [Example 128A] | human recombinant sGC enzyme (Homo sapiens (Human), UniProt Q02108+Q02153) | 9.95
CC1(c2cccc(C(=O)O)c2)C(=O)Nc2nc(-c3nn(Cc4ccccc4F)c4cc(Cl)ccc34)nc(N)c21 (stereo not drawn) [Example 169B] | human recombinant sGC enzyme (Homo sapiens (Human), UniProt Q02108+Q02153) | 9.98
CC(C)(Cc1coc(C2(C3CC3)C(=O)Nc3nc(-c4nn(Cc5ccccc5F)c5cc(Cl)ccc45)nc(N)c32)n1)C(=O)O (stereo not drawn) [Example 138B] | human recombinant sGC enzyme (Homo sapiens (Human), UniProt Q02108+Q02153) | 10.24

----------
Emax by entry:
Experimental system: sGC α1/β1 heterodimer (Homo sapiens (Human), UniProt Q02108+Q02153)
Test protocol: Cell-based sGC functional assay (cyclic GMP assay for sGC activator: CASA assay)
Details: CHO-K1, activity expressed as percentage of compound A (standard); CHO-K1/sGC cells; read-out: % Activation
Quantity: Emax

Compound | Reported measurement
CC(C)(Cc1coc(C2(C)C(=O)Nc3nc(-c4nn(Cc5cccc(F)c5)c5cc(Cl)ccc45)nc(N)c32)n1)C(=O)O (centres unmarked) [Example 175A] | 139%
CC1(c2cccc(CCC(=O)O)c2)C(=O)Nc2nc(-c3nn(Cc4ccccc4F)c4ncc(F)cc34)nc(N)c21 (centres unmarked) [Example 24A] | 106%
Cc1cccc(Cn2nc(-c3nc(N)c4c(n3)NC(=O)C4(C)c3nc(CC(C)(C)C(=O)O)co3)c3ccc(Cl)cc32)c1F (centres unmarked) [Example 187A] | 97.1%
CC1(c2nc3cc(C(=O)O)ccc3s2)C(=O)Nc2nc(-c3nn(Cc4ccccc4F)c4cc(Cl)ccc34)nc(N)c21 (centres unmarked) [Example 130A] | 116%
CC(C)(Cc1coc(C2(C)C(=O)Nc3nc(-c4nn(CC5CCCCC5)c5cc(Cl)ccc45)nc(N)c32)n1)C(=O)O (centres unmarked) [Example 159A] | 113%
CCCCn1nc(-c2nc(N)c3c(n2)NC(=O)[C@@]3(C)c2ccc(CCC(=O)O)cc2)c2cccnc21 [Example 14B] | 90%
CC1(c2nc(CCC(F)(F)C(=O)O)co2)C(=O)Nc2nc(-c3nn(Cc4cccc(F)c4)c4cc(F)ccc34)nc(N)c21 (centres unmarked) [Example 135A] | 92.9%
CC1CCC(Cn2nc(-c3nc(N)c4c(n3)NC(=O)[C@@]4(C)c3nc(CC(C)(C)C(=O)O)cs3)c3ccc(F)cc32)CC1 (single isomer, unassigned) [Example 136AA] | 78.2%
